Data origin, for the record: PubChem BioAssay (NCI)

Tested on: SW-620 colon
Test: NCI-60 one-dose screen, 48 h (100 = growth as untreated, 0 = no growth, -100 = all killed)
Details: 10 µM unless noted
Method: Growth inhibition of the SW-620 human tumor cell line is measured as a screen for anti-cancer activity. Cells are grown in 96 well plates and exposed to the test compound for 48 hours. Compounds are tested at a single concentration, which is 10^-5 M for most compounds. The reported endpoint is percent growth (GI% or GIPRCNT), where numbers from 0 - 100% represent growth inhibition, and numbers from -100% - 0 represent cell death. For example, a value of 40 represents 60% growth inhibition. […]
Compounds without any hit were thinned out: in the full panel of roughly 83,000, 20% have a hit. Activity calls are given as the source filed them. Rule for the calls: active = growth percent below 10; inactive = the rest.
Assay metric: growth

1) COCOc1ccc2c(=O)c(C)c(C(=O)N[C@@H](Cc3ccccc3)C(O)C(=O)NCCc3ccc(OC)cc3)oc2c1 (stereo partly drawn): 114% (inactive)
2) COc1cc2c(c(OC)c1OC)C(=O)CC(c1cccc(NC(=O)c3cc(N)ccc3Cl)c1)O2 (stereo not drawn): 37.4% (inactive)
3) Cc1cc2nc3c([nH]c2cc1C)c1ccc(=O)cc1n3CCN(C)C: 22.6% (inactive)
4) COc1ccc(C(=O)/C=C/c2ccccc2Br)cc1S(N)(=O)=O: -45.7% (active)
5) NS(=O)(=O)c1ccc(N=Nc2c(O)n(CC(=O)Nc3ccccc3)c3ccccc23)cc1: -17.4% (active)
6) O=C(NNc1nc2cc(F)ccc2n2c(CN3CCCCC3)ccc12)c1cnccn1: 2.86% (active)
7) Cn1cc(NC(=O)c2cc(NC(=O)c3ccc(/C=C/c4ccccc4)cc3)cn2C)cc1C(=O)NCCCN1CCOCC1: -34% (active)
8) Cc1ccc([C@H]2C(C(=O)c3ccc(Cl)cc3)C3(N[C@@H]2c2ccccc2)C(=O)Nc2ccccc23)cc1 (stereo partly drawn): 29.9% (inactive)
9) O=C(c1ccc(OCCN2CCOCC2)cc1)C1[C@H](c2ccc(Cl)cc2)[C@@H](c2ccccc2)NC12C(=O)Nc1ccc(Cl)cc12 (stereo partly drawn): 41.5% (inactive)
10) CNS(=O)(=O)c1ccc(Nc2ccc(C(F)(F)F)cc2)c(-c2cn(C)cn2)c1: 70.9% (inactive)
11) CCCCCCCCOc1cccc(S(=O)(=O)Nc2ccc(C)cc2C(=O)O)c1: 96.5% (inactive)
12) Cn1cc(-c2cc(N)n3nc(-c4c[nH]c5ccccc45)cc3n2)c2cccnc21: -53.7% (active)
13) COc1cc2nc(SCc3ccccc3)n(-c3ccc(Cl)cc3)c(=O)c2cc1OC: 9.44% (active)
14) Cc1ccc(-c2nc(C#N)c(S(=O)(=O)N3CCN(S(=O)(=O)c4ccc(Cl)cc4)CC3)o2)cc1: 109% (inactive)
15) CCCn1cc(-c2nc(Nc3ccc(C(=O)NCCCCNc4cccc5c4C(=O)N(C4CCC(=O)NC4=O)C5=O)cc3)nc3[nH]ccc23)cn1 (stereo not drawn): 9.12% (active)
16) O=C(NN1C(=O)/C(=C/C=C/c2ccc([N+](=O)[O-])o2)SC1=S)c1ccccc1O: -69.5% (active)
17) O=c1cc(-c2ccccc2)oc2cc(OCCCC[P+](c3ccccc3)(c3ccccc3)c3ccccc3)cc(O)c12: -81.7% (active)
18) COc1c(F)ccc(C(=O)Nc2ccc3nc(NC(=O)C4CCCN(S(=O)(=O)c5ccc(Cl)cc5)C4)sc3c2)c1F (stereo not drawn): 97.2% (inactive)
